# ASSAY_METHOD_TEXT: Proportions of cis and trans at the photostationary state in DMSO from absorbance spectra (Ernst Fischer method)
# Assay type: physicochemical
# REPORTED_CONDITIONS: 530 nm
ASSAY_METRIC: %trans at the photostationary state

# MOLECULE, VALUE_MEASURED
rows = [
    ("Cc1cc(/N=N/c2cccc(-c3ccc(CO)cc3C)c2)ccc1OCC(O)C(C)(C)C (stereo not drawn) [Compound 12c]", "73,13%"),
    ("Cc1cc(/N=N/c2cccc(-c3ccc(C(=O)O)cc3)c2)ccc1OCC(O)C(C)(C)C (stereo not drawn) [Compound 11a]", "78,78%"),
    ("COC(=O)c1ccc(-c2cccc(/N=N/c3ccc(OCC(O)C(C)(C)C)c(C)c3)c2)c(C)c1 (stereo not drawn) [Compound 10c]", "78,66%"),
    ("Cc1cc(OCC(O)C(C)(C)C)ccc1N=Nc1cccc(-c2ccc(C(=O)O)cc2)c1 (stereo not drawn) [Compound 11b]", "70,86%"),
    ("Cc1cc(/N=N/c2cccc(-c3ccc(CO)cc3)c2)ccc1OCC(O)C(C)(C)C (stereo not drawn) [Compound 12a]", "69,80%"),
    ("Cc1cc(OCC(O)C(C)(C)C)ccc1/N=N/c1cccc(-c2ccc(C(=O)O)cc2C)c1 (stereo not drawn) [Compound 11d]", "74,41%"),
    ("Cc1cc(OCC(O)C(C)(C)C)ccc1/N=N/c1cccc(-c2ccc(CO)cc2C)c1 (stereo not drawn) [Compound 12d]", "70,53%"),
    ("COC(=O)c1ccc(-c2cccc(/N=N/c3ccc(OCC(O)C(C)(C)C)cc3C)c2)cc1 (stereo not drawn) [Compound 10b]", "68,03%"),
]

Query: Tell me the measured %trans at the photostationary state of COC(=O)c1ccc(-c2cccc(/N=N/c3ccc(OCC(O)C(C)(C)C)cc3C)c2)c(C)c1 (stereo not drawn) [Compound 10d] , please.
Response: 79,97%

Query: Also check Cc1cc(/N=N/c2cccc(-c3ccc(C(=O)O)cc3C)c2)ccc1OCC(O)C(C)(C)C (stereo not drawn) [Compound 11c]
Response: 77,30%

Query: Also check Cc1cc(OCC(O)C(C)(C)C)ccc1/N=N/c1cccc(-c2ccc(CO)cc2)c1 (stereo not drawn) [Compound 12b]
Response: 80,28%

Query: Also check COC(=O)c1ccc(-c2cccc(/N=N/c3ccc(OCC(O)C(C)(C)C)c(C)c3)c2)cc1 (stereo not drawn) [Compound 10a]
Response: 79,44%

---

# ASSAY_METHOD_TEXT: Proportions of cis and trans at the photostationary state in DMSO from absorbance spectra (Ernst Fischer method)
# Assay type: physicochemical
# REPORTED_CONDITIONS: 380 nm
Listed here: items and their measured %trans at the photostationary state.

Known %trans at the photostationary state results, listed for orientation:
# MOLECULE, ASSAY_METRIC, VALUE_MEASURED
data = [
    ("Cc1cc(/N=N/c2cccc(-c3ccc(C(=O)O)cc3C)c2)ccc1OCC(O)C(C)(C)C (stereo not shown) [Compound 11c]", "%trans at the photostationary state", "5,28%"),
    ("COC(=O)c1ccc(-c2cccc(/N=N/c3ccc(OCC(O)C(C)(C)C)c(C)c3)c2)cc1 (stereo not shown) [Compound 10a]", "%trans at the photostationary state", "8,17%"),
    ("COC(=O)c1ccc(-c2cccc(/N=N/c3ccc(OCC(O)C(C)(C)C)cc3C)c2)c(C)c1 (stereo not shown) [Compound 10d]", "%trans at the photostationary state", "4,68%"),
]

Shifting focus to the molecule that follows.
Query: Tell me the measured %trans at the photostationary state of Cc1cc(/N=N/c2cccc(-c3ccc(CO)cc3C)c2)ccc1OCC(O)C(C)(C)C (stereo not shown) [Compound 12c] , please.
Response: 4,31%
